- ASSAY SYSTEM: Nonstructural protein 1 (Influenza A virus)
- Sequence (Q194T2 whole entry): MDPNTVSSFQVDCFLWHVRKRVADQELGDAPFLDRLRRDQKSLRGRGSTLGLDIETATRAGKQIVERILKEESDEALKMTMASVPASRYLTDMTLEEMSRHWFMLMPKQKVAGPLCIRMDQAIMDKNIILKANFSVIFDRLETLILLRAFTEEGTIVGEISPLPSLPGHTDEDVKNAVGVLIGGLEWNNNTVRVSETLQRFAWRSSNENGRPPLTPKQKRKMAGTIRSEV
- Type: functional, Influenza A virus (A/California/07/2009(H1N1))
Activity calls are given as the source filed them.
ENDPOINT LABEL: IC50

INSERT INTO results (compound, measured_result) VALUES
  ('COc1cc(N=Nc2cccc(S(N)(=O)=O)c2)c2ccccc2c1N', '14.2 µM (active)'),
  ('Cc1csc(NC(=O)CSc2ccc(-c3ccccn3)nn2)n1', '10.2 µM (active)'),
  ('Cc1ncc(CO)c(/C=N/NC(=O)c2cccc(S(=O)(=O)N3CCCC3)c2)c1O', '4.73 µM (active)'),
  ('O=C1NC(=S)N(C2CC2)C(=O)/C1=C/NNC(=O)c1ccccc1', '12.7 µM (active)'),
  ('C/C(=N\Nc1ncnc2sc(C)c(C)c12)c1ccccn1', '19.3 µM (active)'),
  ('CC(=NNC(=S)N1CCCCC1)c1cccc(C)n1', '3.84 µM (active)'),
  ('CCc1nnc(NC(=O)c2cc(Cl)ccn2)s1', '11.1 µM (active)'),
  ('CCOc1ccc(NC(=O)CC(NCc2ccccn2)C(=O)O)cc1 (stereo not given)', '1.28 µM (active)'),
  ('Cc1nnc(N/N=C/c2ccccn2)nc1O', '3.92 µM (active)'),
  ('Nc1nc(-c2ccccn2)nc(N)c1Cc1c(F)cccc1Cl', '6.42 µM (active)');

* * *

- ASSAY SYSTEM: Leucine aminopeptidase (Plasmodium falciparum 3D7)
- Sequence (Q8IL11 whole entry): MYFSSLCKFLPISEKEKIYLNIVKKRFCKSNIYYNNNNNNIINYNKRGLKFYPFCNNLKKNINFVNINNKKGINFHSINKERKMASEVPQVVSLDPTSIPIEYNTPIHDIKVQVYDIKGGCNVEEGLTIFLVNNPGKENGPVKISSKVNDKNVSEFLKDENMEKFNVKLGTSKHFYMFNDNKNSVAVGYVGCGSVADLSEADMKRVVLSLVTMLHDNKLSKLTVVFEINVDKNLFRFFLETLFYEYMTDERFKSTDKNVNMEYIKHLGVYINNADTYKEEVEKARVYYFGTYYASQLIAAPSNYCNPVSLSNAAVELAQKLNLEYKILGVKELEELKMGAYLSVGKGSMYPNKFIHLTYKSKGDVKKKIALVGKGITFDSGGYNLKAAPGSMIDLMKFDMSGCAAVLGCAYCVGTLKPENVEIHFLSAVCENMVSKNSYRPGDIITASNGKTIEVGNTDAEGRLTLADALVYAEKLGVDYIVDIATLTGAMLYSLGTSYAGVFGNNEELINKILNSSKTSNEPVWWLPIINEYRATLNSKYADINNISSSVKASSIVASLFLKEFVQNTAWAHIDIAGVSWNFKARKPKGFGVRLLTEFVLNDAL
- ASSAY EXPLANATION: P. falciparum M17LAP inhibitors, primary screen, biochemical, fluorogenic H-Leu-NHMec substrate, 1536-well (AID 1619)
- Type: functional
Calls of active or inactive are those of the source.
ENDPOINT LABEL: IC50

INSERT INTO results (molecule, assay_system, endpoint_label, measured_result) VALUES
  ('COc1ccc(/C=N/NC2=NC(=O)C(CC(=O)O)S2)cc1OCc1ccc(Cl)cc1 (stereo not given)', 'Leucine aminopeptidase (Plasmodium falciparum 3D7)', 'IC50', '20.3 µM (active)'),
  ('O=C(NCc1cccs1)N[C@@H](Cc1ccccc1)C(=O)O', 'Leucine aminopeptidase (Plasmodium falciparum 3D7)', 'IC50', '57.6 µM (active)'),
  ('Nc1n[nH]c(N)c1N=Nc1ccccc1', 'Leucine aminopeptidase (Plasmodium falciparum 3D7)', 'IC50', '7.03 µM (active)'),
  ('CSc1nc2nc(-c3ccccc3)cc(O)n2n1', 'Leucine aminopeptidase (Plasmodium falciparum 3D7)', 'IC50', '28.6 µM (active)'),
  ('COc1ccc(/C=N/NC(=S)Nc2cccc(C(=O)O)c2)cc1', 'Leucine aminopeptidase (Plasmodium falciparum 3D7)', 'IC50', '19.6 µM (active)');

* * *

- ASSAY SYSTEM: Paired box protein Pax-8 (Homo sapiens, UniProt Q06710)
- Sequence (Q06710 whole entry): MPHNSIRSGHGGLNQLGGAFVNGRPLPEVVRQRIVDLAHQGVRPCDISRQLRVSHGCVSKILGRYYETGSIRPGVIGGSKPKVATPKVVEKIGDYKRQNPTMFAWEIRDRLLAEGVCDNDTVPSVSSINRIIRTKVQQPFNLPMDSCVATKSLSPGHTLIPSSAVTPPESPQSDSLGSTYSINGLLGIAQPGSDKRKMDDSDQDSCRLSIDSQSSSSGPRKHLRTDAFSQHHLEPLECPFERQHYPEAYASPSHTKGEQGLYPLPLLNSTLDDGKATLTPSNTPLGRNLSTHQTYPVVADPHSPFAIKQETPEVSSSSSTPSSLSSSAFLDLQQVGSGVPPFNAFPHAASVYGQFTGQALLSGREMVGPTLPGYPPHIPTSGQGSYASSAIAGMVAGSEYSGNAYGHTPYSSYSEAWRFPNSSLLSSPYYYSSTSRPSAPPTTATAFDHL
- ASSAY EXPLANATION: PAX8 transcriptional activity inhibition in RMG-I – RMG-I cells, luciferase, cherry-pick, dose response (AID 687027);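 also: luciferase reporter driven by Pax8 target thyroperoxidase promoter measured by SteadyGlo luminescence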
- Type: functional, cell-based
Calls of active or inactive are those of the source.
ENDPOINT LABEL: AC50

INSERT INTO measurements (compound, measured_result) VALUES
  ('C=C(C)C(=O)OC1(C(F)(F)F)Oc2cc(C)ccc2NC1=O (centres undefined)', '9.05 µM (active)'),
  ('C[C@H](O)C#Cc1ccc2c(c1)O[C@H](CN(C)Cc1ccc(-c3ccccc3)cc1)[C@@H](C)CN([C@@H](C)CO)S2(=O)=O', '3.42 µM (active)'),
  ('C[C@@H]1CCCCO[C@@H](CN(C)Cc2ccc(C(F)(F)F)cc2)[C@H](C)CN([C@H](C)CO)C(=O)c2cc(NS(=O)(=O)c3ccc(F)cc3)ccc2O1', '5.08 µM (active)'),
  ('O=S(=O)(Nc1cccc2cccnc12)c1ccccc1', '6.46 µM (active)');

* * *

- ASSAY SYSTEM: Small ubiquitin-related modifier 1 (Homo sapiens, UniProt P63165)
- Sequence (P63165 whole entry): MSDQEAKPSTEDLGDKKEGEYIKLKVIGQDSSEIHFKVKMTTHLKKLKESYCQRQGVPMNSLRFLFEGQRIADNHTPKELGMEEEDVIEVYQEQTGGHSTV
- ASSAY EXPLANATION: SUMO1 protein interaction blockers, potency – biochemical, fluorescence polarization, uHTS hits, dose response (AID 624382)
- Assay type: functional
- CONDITION DETAILS: read-out: IC50_Mean
Calls of active or inactive are those of the source.
Outcome codes: label 1 for active, label 0 for inactive

INSERT INTO results (compound, label_value) VALUES
  ('O=C(O)c1cccc(-n2cccc2/C=C/[N+](=O)[O-])c1', 'label 0'),
  ('O=C(C1=C(O)C(=O)N(c2nc3ccc(Cl)cc3s2)C1c1ccco1)c1ccco1 (centres undefined)', 'label 0'),
  ('O=S(=O)(Nc1c(S(=O)(=O)c2ccccc2)c2nc3ccccc3nc2n1C1CCCCC1)c1ccccc1', 'label 0'),
  ('C=C1c2c(Cl)ccc(O)c2C(=O)C2=C(O)[C@]3(O)C(=O)C(C(N)=O)=C(O)[C@@H](N(C)C)[C@@H]3[C@@H](O)[C@H]12.O=C(O)c1cc(S(=O)(=O)O)ccc1O [MECLOCYCLINE SULFOSALICYLATE]', 'label 1');

* * *

- ASSAY SYSTEM: Voltage-dependent T-type calcium channel subunit alpha-1H (Homo sapiens, UniProt O95180);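 also: channel activity triggered by adding a high calcium stimulation buffer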
- Sequence (O95180 whole entry): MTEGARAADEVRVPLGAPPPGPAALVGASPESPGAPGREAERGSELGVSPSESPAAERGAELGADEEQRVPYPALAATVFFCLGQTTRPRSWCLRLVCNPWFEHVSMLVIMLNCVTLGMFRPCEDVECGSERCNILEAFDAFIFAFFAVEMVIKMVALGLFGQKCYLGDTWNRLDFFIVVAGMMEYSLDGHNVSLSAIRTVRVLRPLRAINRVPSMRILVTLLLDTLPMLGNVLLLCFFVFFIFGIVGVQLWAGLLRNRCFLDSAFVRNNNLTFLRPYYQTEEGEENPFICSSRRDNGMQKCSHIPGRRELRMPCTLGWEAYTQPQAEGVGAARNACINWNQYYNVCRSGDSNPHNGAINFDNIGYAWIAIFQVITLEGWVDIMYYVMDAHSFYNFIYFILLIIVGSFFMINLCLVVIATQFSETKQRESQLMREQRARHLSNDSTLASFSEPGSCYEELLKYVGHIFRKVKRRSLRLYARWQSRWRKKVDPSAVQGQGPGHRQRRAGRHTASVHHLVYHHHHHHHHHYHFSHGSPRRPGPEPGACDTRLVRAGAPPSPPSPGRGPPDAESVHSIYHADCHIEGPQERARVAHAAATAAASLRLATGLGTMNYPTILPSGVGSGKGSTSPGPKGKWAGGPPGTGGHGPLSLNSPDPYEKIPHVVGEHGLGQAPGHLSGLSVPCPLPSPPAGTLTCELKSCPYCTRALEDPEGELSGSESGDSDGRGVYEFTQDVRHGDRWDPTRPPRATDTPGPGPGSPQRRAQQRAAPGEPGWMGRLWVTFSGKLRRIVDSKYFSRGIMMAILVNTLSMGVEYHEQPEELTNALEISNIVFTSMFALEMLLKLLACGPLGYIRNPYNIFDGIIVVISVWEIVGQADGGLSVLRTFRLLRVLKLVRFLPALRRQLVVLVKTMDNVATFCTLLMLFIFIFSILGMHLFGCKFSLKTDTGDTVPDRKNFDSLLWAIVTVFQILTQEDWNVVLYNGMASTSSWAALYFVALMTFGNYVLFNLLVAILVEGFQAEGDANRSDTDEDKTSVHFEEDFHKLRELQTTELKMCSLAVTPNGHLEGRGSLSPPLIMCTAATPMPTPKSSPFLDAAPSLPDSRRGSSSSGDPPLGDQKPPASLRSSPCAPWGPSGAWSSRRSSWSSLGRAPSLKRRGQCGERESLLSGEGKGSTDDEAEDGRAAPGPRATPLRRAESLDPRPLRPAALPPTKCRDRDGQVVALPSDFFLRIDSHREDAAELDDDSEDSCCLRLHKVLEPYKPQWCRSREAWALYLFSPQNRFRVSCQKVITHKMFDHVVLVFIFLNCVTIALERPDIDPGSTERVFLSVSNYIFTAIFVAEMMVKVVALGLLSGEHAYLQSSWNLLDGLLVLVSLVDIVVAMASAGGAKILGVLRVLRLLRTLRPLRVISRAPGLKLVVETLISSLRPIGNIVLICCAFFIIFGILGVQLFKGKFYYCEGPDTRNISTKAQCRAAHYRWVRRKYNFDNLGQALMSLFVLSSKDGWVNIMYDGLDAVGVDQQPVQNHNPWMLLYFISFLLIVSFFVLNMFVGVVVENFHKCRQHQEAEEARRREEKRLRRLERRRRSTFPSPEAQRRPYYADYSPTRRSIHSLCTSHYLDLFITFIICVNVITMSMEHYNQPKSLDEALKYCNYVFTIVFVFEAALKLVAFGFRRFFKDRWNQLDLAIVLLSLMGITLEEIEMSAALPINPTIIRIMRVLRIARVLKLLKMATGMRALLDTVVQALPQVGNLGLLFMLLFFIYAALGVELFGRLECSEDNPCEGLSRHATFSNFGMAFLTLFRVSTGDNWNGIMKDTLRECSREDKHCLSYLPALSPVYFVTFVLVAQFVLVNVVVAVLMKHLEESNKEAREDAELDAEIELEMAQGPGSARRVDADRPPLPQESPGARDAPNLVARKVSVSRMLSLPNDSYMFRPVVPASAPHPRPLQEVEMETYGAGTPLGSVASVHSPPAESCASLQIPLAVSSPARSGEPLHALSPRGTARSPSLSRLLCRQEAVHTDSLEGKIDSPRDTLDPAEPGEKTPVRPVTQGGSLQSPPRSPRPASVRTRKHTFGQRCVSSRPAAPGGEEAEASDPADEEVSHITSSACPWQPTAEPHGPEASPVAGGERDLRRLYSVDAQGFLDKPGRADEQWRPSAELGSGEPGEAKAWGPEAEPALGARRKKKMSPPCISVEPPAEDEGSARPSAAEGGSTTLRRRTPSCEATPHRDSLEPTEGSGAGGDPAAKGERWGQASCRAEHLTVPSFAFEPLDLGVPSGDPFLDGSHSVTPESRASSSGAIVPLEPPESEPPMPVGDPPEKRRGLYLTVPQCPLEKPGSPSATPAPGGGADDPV
- Format: functional
Active and inactive are the calls of the source.
Quick reference for EC50 among some compounds
ENDPOINT LABEL: EC50

INSERT INTO measurements (smiles_structure, assay_system, endpoint_label, measured_result) VALUES
  ('CCn1nccc1C(=O)Nc1cc(Cl)cc(Cl)c1', 'Voltage-dependent T-type calcium channel subunit alpha-1H (Homo sapiens, UniProt O95180)', 'EC50', '7.54 µM (active)'),
  ('O=C(CSc1nc2ccccc2[nH]1)Nc1ccc(F)c(F)c1', 'Voltage-dependent T-type calcium channel subunit alpha-1H (Homo sapiens, UniProt O95180)', 'EC50', '6.59 µM (active)'),
  ('S=C(NCc1ccco1)N1CCN(Cc2ccc(Cl)cc2Cl)CC1', 'Voltage-dependent T-type calcium channel subunit alpha-1H (Homo sapiens, UniProt O95180)', 'EC50', '4.2 µM (active)'),
  ('O=C(CSCc1cnn(-c2ccccc2)c1-n1cccc1)NCc1ccc2c(c1)OCO2', 'Voltage-dependent T-type calcium channel subunit alpha-1H (Homo sapiens, UniProt O95180)', 'EC50', '2.98 µM (active)'),
  ('COc1ccc(N2CCN(C(=O)CCc3nc(-c4ccc(C)cc4)no3)CC2)cc1', 'Voltage-dependent T-type calcium channel subunit alpha-1H (Homo sapiens, UniProt O95180)', 'EC50', '2.1 µM (active)'),
  ('Cc1cccc(OCC(=O)Nc2ccccc2N2CCN(C(=O)C(C)C)CC2)c1C', 'Voltage-dependent T-type calcium channel subunit alpha-1H (Homo sapiens, UniProt O95180)', 'EC50', '2.13 µM (active)');

* * *

- ASSAY SYSTEM: Zinc finger protein mex-5 (Caenorhabditis elegans)
- Sequence (Q9XUB2 whole entry): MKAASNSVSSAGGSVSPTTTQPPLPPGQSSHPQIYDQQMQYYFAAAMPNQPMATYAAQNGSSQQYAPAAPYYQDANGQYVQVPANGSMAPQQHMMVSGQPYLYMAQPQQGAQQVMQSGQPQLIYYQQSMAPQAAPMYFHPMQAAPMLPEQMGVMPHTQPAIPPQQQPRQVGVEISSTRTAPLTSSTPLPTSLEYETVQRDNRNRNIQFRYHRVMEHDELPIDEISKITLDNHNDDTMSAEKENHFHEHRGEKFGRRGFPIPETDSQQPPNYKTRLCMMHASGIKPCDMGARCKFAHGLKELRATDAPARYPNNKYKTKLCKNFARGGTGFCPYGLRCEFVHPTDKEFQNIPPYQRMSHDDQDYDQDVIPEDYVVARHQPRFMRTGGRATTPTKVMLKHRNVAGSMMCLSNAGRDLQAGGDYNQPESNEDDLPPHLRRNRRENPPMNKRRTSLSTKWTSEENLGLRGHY
- ASSAY EXPLANATION: potency of MEX-5 RNA-binding blockers – biochemical, C. elegans, fluorescence polarization, dose response (AID 1960)
Active and inactive are the calls of the source.
ENDPOINT LABEL: EC50

INSERT INTO results (molecule, assay_system, measured_result) VALUES
  ('COC(=O)[C@@]1(C#N)[C@@H]2C=CC(C(C)=O)=CN2[C@@H](C(N)=O)[C@@H]1c1ccc(F)cc1', 'Zinc finger protein mex-5 (Caenorhabditis elegans)', '11.4 µM (active)'),
  ('Oc1ccc(/C=N/N2CCCCC2)c(O)c1O', 'Zinc finger protein mex-5 (Caenorhabditis elegans)', '> 300 µM (inconclusive)'),
  ('CCN1CCN(Cc2c(O)ccc3c2O/C(=C\c2ccccc2)C3=O)CC1', 'Zinc finger protein mex-5 (Caenorhabditis elegans)', '57.9 µM (active)'),
  ('CC1(O)C(=O)C=C2C=C(C3CC3)OC=C2C1=O (centres undefined)', 'Zinc finger protein mex-5 (Caenorhabditis elegans)', '17.8 µM (active)'),
  ('COC(=O)c1ccc(-n2c(C)cc(C(=O)COC(=O)CC3Sc4ccccc4NC3=O)c2C)cc1 (centres undefined)', 'Zinc finger protein mex-5 (Caenorhabditis elegans)', '> 300 µM (not active)'),
  ('C/C(=N\Nc1ncnc2sc(C)c(C)c12)c1ccccn1', 'Zinc finger protein mex-5 (Caenorhabditis elegans)', '46.7 µM (inconclusive)'),
  ('N#Cc1c(N)nc(SCc2ccncc2)c(C#N)c1-c1cccs1', 'Zinc finger protein mex-5 (Caenorhabditis elegans)', '> 300 µM (not active)'),
  ('CS(=O)(=O)Nc1nc2n(n1)C(c1ccccc1)C=C(c1ccc(Br)cc1)N2 (centres undefined)', 'Zinc finger protein mex-5 (Caenorhabditis elegans)', '6.39 µM (active)'),
  ('Cc1cc(C(=O)N/N=C/c2ccc(-c3cccc(Cl)c3Cl)o2)[nH]n1', 'Zinc finger protein mex-5 (Caenorhabditis elegans)', '10.2 µM (active)'),
  ('O=C1NC(=O)N(c2ccccc2F)C(=O)/C1=C/c1cn(CC(=O)N2CCOCC2)c2ccccc12', 'Zinc finger protein mex-5 (Caenorhabditis elegans)', '> 300 µM (not active)'),
  ('COc1cc([N+](=O)[O-])cc(/C=N/NC(=O)CC#N)c1O', 'Zinc finger protein mex-5 (Caenorhabditis elegans)', '> 300 µM (inconclusive)'),
  ('COc1cc(/C=C2/N=C(c3ccccc3)OC2=O)c(F)cc1OCc1ccccc1', 'Zinc finger protein mex-5 (Caenorhabditis elegans)', '> 300 µM (inconclusive)'),
  ('COc1ccc(/C=C/c2cc(C(F)(F)F)nc(O)n2)cc1OC', 'Zinc finger protein mex-5 (Caenorhabditis elegans)', '> 300 µM (not active)'),
  ('CCOc1ccc(Br)cc1S(=O)(=O)NC(=O)c1ccccc1', 'Zinc finger protein mex-5 (Caenorhabditis elegans)', '> 300 µM (not active)');

Where do the numbers come from? From ChEMBL document CHEMBL1201862.
